All figures here come from patent US12123031B2.

molecular target: StCsm complex (Palm domain of StCas10 subunit) (Streptococcus thermophilus); experiment: Nucleotide binding assay (EMSA); conditions: in the presence or absence of target RNA
Sequence (A0A0A7HFE1 whole entry, the tested form may be a part): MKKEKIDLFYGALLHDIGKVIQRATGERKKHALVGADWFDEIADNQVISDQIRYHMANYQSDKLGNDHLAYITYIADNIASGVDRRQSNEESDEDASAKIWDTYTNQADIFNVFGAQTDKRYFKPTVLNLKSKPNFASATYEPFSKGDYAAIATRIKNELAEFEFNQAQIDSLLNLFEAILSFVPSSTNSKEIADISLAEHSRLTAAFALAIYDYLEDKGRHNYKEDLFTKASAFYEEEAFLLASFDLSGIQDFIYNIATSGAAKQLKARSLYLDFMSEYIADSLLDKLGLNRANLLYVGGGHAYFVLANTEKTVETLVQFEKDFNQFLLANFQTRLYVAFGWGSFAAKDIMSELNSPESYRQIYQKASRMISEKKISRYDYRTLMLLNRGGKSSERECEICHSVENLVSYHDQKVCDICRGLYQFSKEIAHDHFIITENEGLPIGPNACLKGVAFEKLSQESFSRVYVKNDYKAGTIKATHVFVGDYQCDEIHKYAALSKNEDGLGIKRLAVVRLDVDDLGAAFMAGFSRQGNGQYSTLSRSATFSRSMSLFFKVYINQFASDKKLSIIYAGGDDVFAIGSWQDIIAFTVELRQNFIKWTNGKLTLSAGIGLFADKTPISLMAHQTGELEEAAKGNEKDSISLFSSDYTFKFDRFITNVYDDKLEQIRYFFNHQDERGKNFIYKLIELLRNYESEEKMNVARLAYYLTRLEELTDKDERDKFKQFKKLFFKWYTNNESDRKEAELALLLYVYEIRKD
Sequence (A0A0A7HF79 whole entry, further chain, the tested form may be a part): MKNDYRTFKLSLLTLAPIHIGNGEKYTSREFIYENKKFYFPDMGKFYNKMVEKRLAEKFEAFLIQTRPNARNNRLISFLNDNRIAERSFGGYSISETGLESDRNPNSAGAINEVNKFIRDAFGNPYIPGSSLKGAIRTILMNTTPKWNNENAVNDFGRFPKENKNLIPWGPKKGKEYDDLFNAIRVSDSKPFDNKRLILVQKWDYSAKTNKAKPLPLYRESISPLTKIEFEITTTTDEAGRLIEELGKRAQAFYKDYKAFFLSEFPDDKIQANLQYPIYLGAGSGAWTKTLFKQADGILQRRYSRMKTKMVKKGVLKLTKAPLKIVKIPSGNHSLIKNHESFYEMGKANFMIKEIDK
Sequence (A0A0A7HIF0 whole entry, further chain, the tested form may be a part): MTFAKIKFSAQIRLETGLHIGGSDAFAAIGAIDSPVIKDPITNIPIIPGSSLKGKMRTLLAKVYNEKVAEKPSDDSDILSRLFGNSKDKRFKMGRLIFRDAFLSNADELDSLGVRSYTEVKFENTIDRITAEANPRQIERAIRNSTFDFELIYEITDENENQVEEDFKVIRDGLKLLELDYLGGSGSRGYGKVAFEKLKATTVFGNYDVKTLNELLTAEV
Sequence (A0A0A7HGA1 whole entry, further chain, the tested form may be a part): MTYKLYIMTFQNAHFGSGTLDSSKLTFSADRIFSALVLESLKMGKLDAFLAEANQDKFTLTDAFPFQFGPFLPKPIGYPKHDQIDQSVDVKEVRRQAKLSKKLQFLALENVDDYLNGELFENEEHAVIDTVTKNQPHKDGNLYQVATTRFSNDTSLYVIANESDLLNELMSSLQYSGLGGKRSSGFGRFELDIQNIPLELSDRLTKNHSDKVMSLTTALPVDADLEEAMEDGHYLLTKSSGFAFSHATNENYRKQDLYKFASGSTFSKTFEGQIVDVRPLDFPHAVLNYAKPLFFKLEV
Sequence (A0A0A7HIX1 whole entry, further chain, the tested form may be a part): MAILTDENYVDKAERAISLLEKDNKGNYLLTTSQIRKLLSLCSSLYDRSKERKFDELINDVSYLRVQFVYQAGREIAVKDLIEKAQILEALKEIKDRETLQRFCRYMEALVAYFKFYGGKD
assay_readout: Kd

Which measured Kd value corresponds to Nc1ncnc2c1ncn2[C@@H]1O[C@H](COP(=O)(O)OP(=O)(O)OP(=O)(O)O)[C@@H](O)[C@H]1O [ATP, adenosine triphosphate] ?
10 to 20 nM
